Recorded log10(IC50) by entry
system: BJ; test: Cytotoxicity against human BJ cells after 48 hrs by Alamar Blue assay; type: cell-based
QUANTITY_MEASURED: log10(IC50) (log10 of the value in µM)

> print(dat)
                                   compound  quantity.measured  observed.value
1  CC(C)CCC[C@@H](C)[C@H]1CC[C@H]2[C@@H]3C[C@H]4O[C@]45[C@@H](O)[C@@H](O)CC[C@]5(C)[C@H]3CC[C@]12C        log10(IC50)            1.31
2  CC(C)CCC[C@@H](C)[C@H]1CC[C@H]2[C@@H]3[C@@H](O)[C@@H]4O[C@@]45C[C@@H](O)CC[C@]5(C)[C@H]3CC[C@]12C        log10(IC50)            1.13
3  CC(C)CCC[C@@H](C)[C@H]1CC[C@H]2[C@@H]3CC[C@]45O[C@H]4[C@@H](O)CC[C@]5(C)[C@H]3CC[C@]12C        log10(IC50)            1.50
4  CC(C)CCC[C@@H](C)[C@H]1CC[C@H]2[C@@H]3[C@@H](O)C=C4C[C@@H](O)CC[C@]4(C)[C@H]3CC[C@]12C        log10(IC50)            1.30
5  COc1cccc2c1C(=O)c1c(O)c3c(c(O)c1C2=O)C[C@@](O)(C(=O)CO)C[C@@H]3O[C@H]1C[C@H](N)[C@H](O)[C@H](C)O1 [DOXORUBICIN]        log10(IC50)            0.43
6  CC(C)CCC[C@@H](C)[C@H]1CC[C@H]2[C@@H]3[C@@H](O)[C@H]4O[C@]45C[C@@H](O)CC[C@]5(C)[C@H]3CC[C@]12C        log10(IC50)            1.29

Data provenance: ChEMBL document CHEMBL1136993
